Parameter: T/C. Scope: all listed entries.
tested on: L1210 leukemia ip in BDF1 mice, survival T/C; experiment: NCI In Vivo Anticancer Drug Screen. Data for tumor model L1210 Leukemia (intraperitoneal) in B6D2F1 (BDF1) mice; details: endpoint: mean survival time; dose: 100.0 mg/kg/injection; schedule: Q04DX003 (ip); vehicle: saline; higher = longer survival
Toxic doses and inconclusive results are not listed.

T/C measured on Cc1cc[n+](CCC(N)=O)cc1 = 93 % of control

---

System: L1210 leukemia ip in BDF1 mice, survival T/C
Assay: NCI In Vivo Anticancer Drug Screen. Data for tumor model L1210 Leukemia (intraperitoneal) in B6D2F1 (BDF1) mice
Conditions: endpoint: mean survival time; dose: 400.0 mg/kg/injection; schedule: Q04DX002 (ip); vehicle: Klucel (hydroxypropylcellulose) (HPC)
Method: The antitumor activity of compounds was measured in mice bearing transplantable tumors. Survival or tumor size were measured and the results are expressed as the measurement made in the treated group (T) divided by the measurement made in the vehicle treated control group (C). The tumor model used in this assay is L1210 Leukemia (intraperitoneal) in B6D2F1 (BDF1) mice
Toxic doses and inconclusive results are not listed. Rule as the data show it: active = T/C of 150% or more; inactive = T/C below 125%.
Bench note: report the call from TRUE = active, FALSE = inactive

Example results:
# Compound, Assay system, Answer label
data = [
    ("COc1cc2c(cc1OC)C(OC)N(C)c1c-2ccc2cc3c(cc12)OCO3 (stereo unspecified)", "L1210 leukemia ip in BDF1 mice, survival T/C", "TRUE"),
    ("Cc1ccccc1Nc1nc(N)nc2nc(N)c(C(N)=O)nc12", "L1210 leukemia ip in BDF1 mice, survival T/C", "FALSE"),
    ("O=C(COc1ccc(Cl)cc1)Nc1cccc2ccccc12", "L1210 leukemia ip in BDF1 mice, survival T/C", "FALSE"),
]

Qu. Record request — test call for c1ccc(Cc2ccccc2)cc1
Ans. FALSE

Qu. Record request — test call for C=C(C)COc1ccccc1
Ans. FALSE

Qu. Record request — test call for CCCCOc1ccc(OCCCC)cc1
Ans. FALSE

Qu. Record request — test call for O=C(c1ccccc1)c1ccc(O)c2ncccc12
Ans. FALSE

Qu. Record request — test call for COc1ccc(NC(=O)N(C)Cc2ccccc2Cl)cc1
Ans. FALSE

Qu. Record request — test call for O=C1CCCCC1CC1(O)C(=O)NC2CCC(Br)CC21 (stereo unspecified)
Ans. FALSE

Qu. Record request — test call for CC1(C)CC(=O)C2=C(C1)Nc1ccccc1NC2c1ccccc1 (stereo unspecified)
Ans. FALSE

---

tested on: L1210 leukemia ip in BDF1 mice, survival T/C; experiment: NCI In Vivo Anticancer Drug Screen. Data for tumor model L1210 Leukemia (intraperitoneal) in B6D2F1 (BDF1) mice; settings: endpoint: mean survival time; dose: 100.0 mg/kg/injection; schedule: Q01DX009 (ip); vehicle: other; higher = longer survival
Toxic doses and inconclusive results are not listed.
Parameter: T/C. Scope: all listed entries.

# Molecule, T/C
measured = [
    ("CCCCNC(C)(C)C(SS)c1ccc(C(F)(F)F)cc1 (stereo not given)", "98 % of control"),
    ("Cc1nc(C)c2c(c1C)-c1ccccc1C2=O", "100 % of control"),
    ("COC(=O)NC1C(C)C=CC(C)C1I (stereo not given)", "109 % of control"),
    ("O=C1CCCN(c2ccccc2)c2ccccc21", "100 % of control"),
    ("O=CN(c1ccccc1)c1ccccc1", "109 % of control"),
    ("OC(CC(O)(C(F)(F)F)C(F)(F)F)c1cccc(C(F)(F)F)c1 (stereo not given)", "96 % of control"),
    ("COC(=O)c1c(OC)cc(OC)cc1OC", "96 % of control"),
    ("Nc1cccc2cn[nH]c12", "104 % of control"),
]

T/C measured on Cc1cccc(NC(=S)Nc2ccc(-c3ccc(NC(=S)Nc4cccc(C)c4)cc3)cc2)c1 = 104 % of control

T/C measured on CCOC(=O)C(Br)C(Br)c1cccc([N+](=O)[O-])c1 (stereo not given) = 105 % of control

---

System: L1210 leukemia ip in BDF1 mice, survival T/C
Assay: NCI In Vivo Anticancer Drug Screen. Data for tumor model L1210 Leukemia (intraperitoneal) in B6D2F1 (BDF1) mice
Details: endpoint: mean survival time; dose: 300.0 mg/kg/injection; schedule: Q01DX001 (ip); vehicle: other; higher = longer survival
Description: The antitumor activity of compounds was measured in mice bearing transplantable tumors. Survival or tumor size were measured and the results are expressed as the measurement made in the treated group (T) divided by the measurement made in the vehicle treated control group (C). The tumor model used in this assay is L1210 Leukemia (intraperitoneal) in B6D2F1 (BDF1) mice
Inconclusive results and toxic doses are left out.
Parameter: T/C. Scope: all listed entries.

Look over these answered cases.
# Compound, T/C
records = [
    ("O=C(O)C12CCC(CCC1O)C2 (stereo not drawn)", "100 % of control"),
    ("CCOC(=O)c1ccc(NCC(=O)CNc2nc(N)nc(N)c2[N+](=O)[O-])cc1", "87 % of control"),
    ("CC(=O)c1ccc(Nc2ccnc3cc(Cl)ccc23)cc1", "91 % of control"),
    ("S=C(Nc1ccc(Br)cc1)NC1CCCCC1", "95 % of control"),
    ("CN(C)CC1CCCCCC(Br)C1=O (stereo not drawn)", "107 % of control"),
    ("O=C(NCC(F)(F)C(F)(F)C(F)(F)C(F)(F)C(F)(F)C(F)(F)C(F)(F)F)Oc1ccccc1", "94 % of control"),
    ("O=[N+]([O-])c1cc(/C=N/NC(=S)NC23CC4CC(CC(C4)C2)C3)ccc1Cl", "91 % of control"),
]

Please look at the following compound next.
T/C measured on CCN(CCNc1cc(C)nc(/N=C(\N)Nc2ccc(Cl)c(Cl)c2)n1)CC(C)(C)O = 104 % of control

---

system: L1210 leukemia ip in BDF1 mice, survival T/C; test: NCI In Vivo Anticancer Drug Screen. Data for tumor model L1210 Leukemia (intraperitoneal) in B6D2F1 (BDF1) mice; details: endpoint: mean survival time; dose: 15.0 mg/kg/injection; schedule: Q01DX Z (ip); vehicle: carboxymethylcellulose (CMC)
Inconclusive results and toxic doses are left out. Cut-off read from the data, not from the text of the source: active = T/C of 150% or more; inactive = T/C below 125%.
Bench note: report the call from active, inactive

Example results:
# Substance smiles, Answer label
measured = [
    ("O=C(Nc1ccc(C2=NCCN2)c(Cl)c1)c1cccc(C(=O)Nc2ccc(C3=NCCN3)c(Cl)c2)c1", "inactive"),
    ("Nc1nncs1", "inactive"),
    ("CN(N=O)C(=O)NC(N)=O", "active"),
]

Here's the next entry for you.
Qu. Record request — test call for O=C(Nc1cccc(-c2nc3ccccc3[nH]2)c1)c1ccc(C(=O)Nc2cccc(-c3nc4ccccc4[nH]3)c2)cc1
Ans. inactive

---

Parameter: T/C. Scope: all listed entries.
test system: L1210 leukemia ip in BDF1 mice, survival T/C; test: NCI In Vivo Anticancer Drug Screen. Data for tumor model L1210 Leukemia (intraperitoneal) in B6D2F1 (BDF1) mice; details: endpoint: mean survival time; dose: 12.5 mg/kg/injection; schedule: Q04DX003 (ip); vehicle: saline; higher = longer survival
Toxic doses and inconclusive results are not listed.

# Compound, T/C
rows = [
    ("O=C1C=C(O)C(=O)C=C1O", "90 % of control"),
    ("COC(=O)/C(=C\\c1ccc([N+](=O)[O-])s1)C(C)=O", "94 % of control"),
    ("c1ccc(Cc2cccc[n+]2Cc2ccccc2)cc1", "102 % of control"),
    ("O=[N+]([O-])c1ccc(OCCC[P+](c2ccccc2)(c2ccccc2)c2ccccc2)c(Cl)c1", "92 % of control"),
    ("NC(=S)NN=C1CCCC1", "94 % of control"),
    ("CC(=O)NNC(=O)c1cnccn1", "97 % of control"),
    ("CCN(CC)CCC(CCN(CC)CC)(CNC(=O)CN(CC)CC)c1cccc2ccccc12", "87 % of control"),
    ("C=CC[P+](CCCC)(CCCC)CCCC", "91 % of control"),
]

Please look at the following compound next.
T/C measured on COc1cc2ccc3c(c2cc1OC)C(=O)CNC3C (centres undefined) = 100 % of control

---

Parameter: T/C. Scope: all listed entries.
test system: L1210 leukemia ip in BDF1 mice, survival T/C; experiment: NCI In Vivo Anticancer Drug Screen. Data for tumor model L1210 Leukemia (intraperitoneal) in B6D2F1 (BDF1) mice; conditions: endpoint: mean survival time; dose: 100.0 mg/kg/injection; schedule: Q04DX003 (ip); vehicle: Klucel (hydroxypropylcellulose) (HPC); higher = longer survival
Toxic doses and inconclusive results are not listed.

# Compound, Quantity kind, Experimental value
records = [
    ("Cc1c(NC(=O)CCl)c(=O)n(-c2ccccc2)n1C", "T/C", "100 % of control"),
    ("O=C(NC/C(Br)=C/Br)Nc1c(Cl)cccc1Cl", "T/C", "96 % of control"),
    ("O=C(N/N=C/c1ccc2c(c1)CCC2)c1ccc(S(=O)(=O)O)cc1", "T/C", "97 % of control"),
]

T/C measured on CC(c1ccccc1)C1N(c2ccccc2)CCN1c1ccccc1 (configuration not stated) = 94 % of control

T/C measured on Cn1[nH]c(=O)c2ccccc2c1=O = 106 % of control

T/C measured on CC(=O)Nc1ccc(/C=N\NC(=O)N/N=C/c2ccc(NC(C)=O)cc2)cc1 = 91 % of control

T/C measured on Cc1cccc(C)c1NC(=O)Nc1ccc(Cl)c(Cl)c1 = 95 % of control

T/C measured on CCOC(=O)c1ccc(NS(C)(=O)=O)cc1 = 114 % of control

T/C measured on Brc1ccc(C=C2c3ccccc3-c3ccccc32)cc1 = 96 % of control

T/C measured on O=C(CCc1ccc(N(CCCl)CCCl)cc1)NC1CCCC1 = 116 % of control

T/C measured on CCCCNC(=O)Nc1ccc(SC)cc1 = 94 % of control

T/C measured on Nc1nc(Cl)c(Cl)nc1N = 95 % of control

Source: PubChem BioAssay AID248
